molecular target: T1, PCSK9Δhelix (human, Chemically biotinylated in the phage ELISAs; the site is not given.); assay: phage spot ELISA
T1 construct: construct M1-Q692 with engineered TEV site, cleaved by TEV; also called His-PCSK9Δhelix; open groove PCSK9Δhelix
T1 sequence (prodomain, as listed by the source mutant limits assumed, chain 1 of 2): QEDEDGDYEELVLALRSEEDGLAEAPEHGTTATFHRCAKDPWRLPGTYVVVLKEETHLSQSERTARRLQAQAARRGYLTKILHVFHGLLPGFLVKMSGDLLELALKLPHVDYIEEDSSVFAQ
T1 sequence (chain, as listed by the source mutant limits assumed, chain 2 of 2): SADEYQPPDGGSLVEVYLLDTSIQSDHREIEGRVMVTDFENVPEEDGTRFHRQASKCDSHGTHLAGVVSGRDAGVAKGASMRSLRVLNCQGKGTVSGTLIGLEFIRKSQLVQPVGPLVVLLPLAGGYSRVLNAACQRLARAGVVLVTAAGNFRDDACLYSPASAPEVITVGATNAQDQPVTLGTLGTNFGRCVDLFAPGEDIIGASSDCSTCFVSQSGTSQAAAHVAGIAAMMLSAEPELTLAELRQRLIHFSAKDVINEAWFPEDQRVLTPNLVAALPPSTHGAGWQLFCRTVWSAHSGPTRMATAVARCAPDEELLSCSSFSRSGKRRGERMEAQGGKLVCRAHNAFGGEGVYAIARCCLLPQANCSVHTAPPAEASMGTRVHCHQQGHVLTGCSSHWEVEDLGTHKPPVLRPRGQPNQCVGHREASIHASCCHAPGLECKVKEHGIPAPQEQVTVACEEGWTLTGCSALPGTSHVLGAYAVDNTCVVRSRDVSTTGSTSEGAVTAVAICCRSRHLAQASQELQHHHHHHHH
Measured Property: s/n ratio
Please give the numeric answer without any surrounding text.

Answered examples (4):
{"Binder": "TAFTSWEEYLDWVGSGGCGYRYMCDMINGL [SEQ ID NO 358]", "Numeric Result": 30.4}
{"Binder": "TAFTSWEEYLDWVGSGQCYPWCRL [SEQ ID NO 338]", "Numeric Result": 29.2}
{"Binder": "TAFTSWEEYLDWVGSGKMTHMKAD [SEQ ID NO 357]", "Numeric Result": 1.07}
{"Binder": "TAFTSWEEYLDWVGSGSETGLGTYYG [SEQ ID NO 350]", "Numeric Result": 25.5}

Consider TAFTSWEEYLDWVGSGDCNLWGDDGKYRLCF [SEQ ID NO 333] . Its measured s/n ratio is 23

Consider TAFTSWEEYLDWVGSGNMCYLRGKMDCNIV [SEQ ID NO 347] . Its measured s/n ratio is 28.6

Consider TAFTSWEEYLDWVGSGPRTYLRGLVD [SEQ ID NO 340] . Its measured s/n ratio is 25.1
